# experimental.target: T1, COX-1 (Ovis aries, UniProt P05979)
# T1 construct: purchased Biovision K548-100
# T1 sequence (P05979 25-600): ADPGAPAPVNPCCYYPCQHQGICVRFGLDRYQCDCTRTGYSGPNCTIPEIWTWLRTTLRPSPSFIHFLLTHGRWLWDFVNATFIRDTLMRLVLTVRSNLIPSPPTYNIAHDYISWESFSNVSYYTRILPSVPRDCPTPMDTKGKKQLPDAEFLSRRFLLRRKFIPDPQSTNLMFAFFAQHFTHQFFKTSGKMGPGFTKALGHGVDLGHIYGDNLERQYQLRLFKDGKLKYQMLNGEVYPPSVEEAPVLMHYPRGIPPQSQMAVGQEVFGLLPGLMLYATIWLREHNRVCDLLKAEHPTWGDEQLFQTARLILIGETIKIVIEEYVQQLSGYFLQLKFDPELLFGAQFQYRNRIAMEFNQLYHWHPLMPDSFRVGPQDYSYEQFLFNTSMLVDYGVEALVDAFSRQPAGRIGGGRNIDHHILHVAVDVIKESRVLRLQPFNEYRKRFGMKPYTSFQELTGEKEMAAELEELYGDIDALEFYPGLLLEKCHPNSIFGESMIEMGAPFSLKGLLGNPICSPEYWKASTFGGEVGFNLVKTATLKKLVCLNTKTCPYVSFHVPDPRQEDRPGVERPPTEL
# run.description: fluorometric COX-1 inhibitor screening kit assay
# Type: biochemical
# test.settings: IC50 (COX-1)/IC50 (COX-2)
# Description: Inhibitory potency of the compounds against COX-1 and COX-2 enzymes was determined using fluorometric COX-1 and COX-2 inhibitor screening kits (Biovision, Zurich, Switzerland). Experimental protocol was followed as described in the guides of the supplier[47]^,[48]. […] Appropriate two points (T1 and T2) in the linear range of the plot were chosen, and the corresponding fluorescence values (RFU1 and RFU2) were obtained. […] Selectivity indexes (SI) were expressed as IC50 (COX-1)/IC50 (COX-2). […]
reported.metric: SI (selectivity index)

- compound: "COc1ccc2sc(SCc3ccc(C(C)C(=O)O)cc3)nc2c1 (stereo not shown)"
  reported.metric: "SI (selectivity index)"
  observed.measurement: 0.59
- compound: "CC(C(=O)O)c1ccc(CSc2nc3ccccc3[nH]2)cc1 (stereo not shown)"
  reported.metric: "SI (selectivity index)"
  observed.measurement: 0.62
- compound: "CC(C(=O)O)c1ccc(CSc2nc3cc(Cl)ccc3s2)cc1 (stereo not shown)"
  reported.metric: "SI (selectivity index)"
  observed.measurement: 0.58
- compound: "CC(C(=O)O)c1ccc(CSc2nc3cc(Cl)ccc3[nH]2)cc1 (stereo not shown)"
  reported.metric: "SI (selectivity index)"
  observed.measurement: 0.63

----------
reported.metric: melting point

Some solved cases for reference:
- compound: "CC(C(=O)O)c1ccc(CSc2nc3ccccc3s2)cc1 (stereo not drawn)"
  melting point: "128.2 to 130.8 °C"
- compound: "Cc1ccc2[nH]c(SCc3ccc(C(C)C(=O)O)cc3)nc2c1 (stereo not drawn)"
  melting point: "209.1 to 211.6 °C"
- compound: "COc1ccc2sc(SCc3ccc(C(C)C(=O)O)cc3)nc2c1 (stereo not drawn)"
  melting point: "166.5 to 168.2 °C"
- compound: "CC(C(=O)O)c1ccc(CSc2nc3cc(Cl)ccc3s2)cc1 (stereo not drawn)"
  melting point: "162.3 to 164.7 °C"
- compound: "CC(C(=O)O)c1ccc(CSc2nc3ccccc3[nH]2)cc1 (stereo not drawn)"
  melting point: "208.7 to 210.9 °C"

**Q:** Supply measured melting point of COc1ccc2[nH]c(SCc3ccc(C(C)C(=O)O)cc3)nc2c1 (stereo not drawn) in your reply.
**A:** 175.6 to 178.4 °C

**Q:** Supply measured melting point of CC(C(=O)O)c1ccc(CSc2nc3cc(Cl)ccc3[nH]2)cc1 (stereo not drawn) in your reply.
**A:** 208.8 to 211.5 °C

**Q:** Supply measured melting point of CC(C(=O)O)c1ccc(CSC2=NCCS2)cc1 (stereo not drawn) in your reply.
**A:** 154.2 to 156.3 °C

**Q:** Supply measured melting point of CC(C(=O)O)c1ccc(CSc2nc3cc([N+](=O)[O-])ccc3[nH]2)cc1 (stereo not drawn) in your reply.
**A:** 176.5 to 178.7 °C

----------
These records show MIC for Escherichia coli (ATCC 25922).
reported.metric: MIC (µg/mL)

Some solved cases for reference:
- molecule: "COc1ccc2[nH]c(SCc3ccc(C(C)C(=O)O)cc3)nc2c1 (centres unmarked)"
  reported.metric: "MIC"
  observed.measurement: 12.5
- molecule: "CC(C(=O)O)c1ccc(CSc2nnnn2C)cc1 (centres unmarked)"
  reported.metric: "MIC"
  observed.measurement: 12.5
- molecule: "CC(C(=O)O)c1ccc(CSC2=NCCS2)cc1 (centres unmarked)"
  reported.metric: "MIC"
  observed.measurement: 12.5

a: CC(C(=O)O)c1ccc(CSc2nc3cc(Cl)ccc3[nH]2)cc1 (centres unmarked)
b: O=C(N[C@H](CO)[C@H](O)c1ccc([N+](=O)[O-])cc1)C(Cl)Cl [Chloramphenicol, reference compound]
**Q:** # return whichever of a and b has the smaller MIC Kindly give the label for the entry you pick.
**A:** b
